Molecular target: T1, Human ACVR2A (human, UniProt P27037 20-135, limits assumed); also: test concentration or dose not given here
T1 construct: also called activin receptor, type II A
T1 sequence (P27037 20-135 limits assumed): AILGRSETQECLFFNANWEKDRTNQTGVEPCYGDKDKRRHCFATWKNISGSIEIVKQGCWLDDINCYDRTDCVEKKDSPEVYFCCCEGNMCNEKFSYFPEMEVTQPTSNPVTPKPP
Experiment: ELISA
MEASURED ENDPOINT: optical density (OD)
Answers are plain numbers, in OD.

Record optical density per entry; entries follow.
1. 368_H06 (antibody, V domains shown, VH/VL only) VH: EVQLLESGGGLVQPGGSLRLSCAASGFTFDSYGMHWVRQAPGKGLEWVANINYNGGYKSYADSVKGRFTISRDNSKNTLYLQMNSLRAEDTAVYYCARGATWHDTHLDYWGQGTLVTVSS VL: DIQMTQSPSSLSASVGDRVTITCRASQSILTYVNWYQQKPGKAPKLLIYATTSRASGVPSRFSGSGSGTDFTLTISSLQPEDFATYYCQQSYDNPLTFGGGTKVEIK
2. 366_F04 (antibody, V domains shown, VH/VL only) VH: EVQLLESGGGLVQPGGSLRLSCAASGFTFSDYGMNWVRQAPGKGLEWVSGINYNGGYTSYADSVKGRFTISRDNSKNTLYLQMNSLRAEDTAVYYCARSANWHDTALDYWGQGTLVTVSS VL: DIQMTQSPSSLSASVGDRVTITCRASQSILSYVNWYQQKPGKAPKLVIYATTSRHSGVPSRFSGSGSGTDFTLTISSLQPEDFATYYCQQSYESPLTFGGGTKVEIK
3. 368_D02 (antibody, V domains shown, VH/VL only) VH: EVQLLESGGGLVQPGGSLRLSCAASGFTFDDYGMNWVRQAPGKGLEWVSNINYNGGYTGYADSVKGRFTISRDNSKNTLYLQMNSLRAEDTAVYYCARGATWHDTHLDYWGQGTLVTVSS VL: DIQMTQSPSSLSASVGDRVTITCRASQSISTYLNWYQQKPGKAPKLVIYAATSRHSGVPSRFSGSGSGTDFTLTISSLQPEDFATYYCQQSYDTPLTFGGGTKVEIK
4. 376_H01 (antibody, V domains shown, VH/VL only) VH: EVQLLESGGGLVQPGGSLRLSCAASGFTFSDYSMNWVRQAPGKGLEWVAGINYNGGYKGYADSVKGRFTISRDNSKNTLYLQMNSLRAEDTAVYYCARGANWHDTALDYWGQGTLVTVSS VL: DIQMTQSPSSLSASVGDRVTITCRASQSILTYLNWYQQKPGKAPKLLIYAATSRASGVPSRFSGSGSGTDFTLTISSLQPEDFATYYCQQSYSTPLTFGGGTKVEIK

Solution:
[2.35, 1.73, 1.93, 3.11]

Record optical density per entry; entries follow.
1. 365_A03 (antibody, V domains shown, VH/VL only) VH: EVQLLESGGGLVQPGGSLRLSCAASGFTFSSYSMNWVRQAPGKGLEWVAGINYNSGYKGYADSVKGRFTISRDNSKNTLYLQMNSLRAEDTAVYYCARSANWHDTALDYWGQGTLVTVSS VL: DIQMTQSPSSLSASVGDRVTITCRASQSILSYLNWYQQKPGKAPKLVIYAVTSRASGVPSRFSGSGSGTDFTLTISSLQPEDFATYYCQQSYDSPLTFGGGTKVEIK
2. 371_C07 (antibody, V domains shown, VH/VL only) VH: EVQLLESGGGLVQPGGSLRLSCAASGFTFDSYGMNWVRQAPGKGLEWVSNINYNGGYTGYADSVKGRFTISRDNSKNTLYLQMNSLRAEDTAVYYCARGATWHDTALDYWGQGTLVTVSS VL: DIQMTQSPSSLSASVGDRVTITCRASQSILSYLNWYQQKPGKAPKLLIYAATSLASGVPSRFSGSGSGTDFTLTISSLQPEDFATYYCQQSYDTPLTFGGGTKVEIK
3. 371_E12 (antibody, V domains shown, VH/VL only) VH: EVQLLESGGGLVQPGGSLRLSCAASGFTFDSYSMNWVRQAPGKGLEWVSGINYNSGYKSYADSVKGRFTISRDNSKNTLYLQMNSLRAEDTAVYYCARGATWHDTHLDYWGQGTLVTVSS VL: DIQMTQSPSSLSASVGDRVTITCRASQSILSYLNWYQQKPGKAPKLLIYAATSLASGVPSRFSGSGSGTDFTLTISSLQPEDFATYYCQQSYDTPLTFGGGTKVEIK
4. 371_C06 (antibody, V domains shown, VH/VL only) VH: EVQLLESGGGLVQPGGSLRLSCAASGFTFSSYSMNWVRQAPGKGLEWVSSINYNGGYTSYADSVKGRFTISRDNSKNTLYLQMNSLRAEDTAVYYCARGATWHDTHLDYWGQGTLVTVSS VL: DIQMTQSPSSLSASVGDRVTITCRASQSISSYLNWYQQKPGKAPKLLIYAVTSRASGVPSRFSGSGSGTDFTLTISSLQPEDFATYYCQQSYDLPLTFGGGTKVEIK
5. 366_E10 (antibody, V domains shown, VH/VL only) VH: EVQLLESGGGLVQPGGSLRLSCAASGFTFDSYGMNWVRQAPGKGLEWVSGINYNGGYKGYADSVKGRFTISRDNSKNTLYLQMNSLRAEDTAVYYCARSANWHDTHLDYWGQGTLVTVSS VL: DIQMTQSPSSLSASVGDRVTITCRASQSILSYVNWYQQKPGKAPKLVIYAATSRHSGVPSRFSGSGSGTDFTLTISSLQPEDFATYYCQQSYSLPLTFGGGTKVEIK
6. 365_D09 (antibody, V domains shown, VH/VL only) VH: EVQLLESGGGLVQPGGSLRLSCAASGFTFSSYGMHWVRQAPGKGLEWVSGINYNSGYTSYADSVKGRFTISRDNSKNTLYLQMNSLRAEDTAVYYCARSANWHDTALDYWGQGTLVTVSS VL: DIQMTQSPSSLSASVGDRVTITCRASQSILSYLNWYQQKPGKAPKLLIYAATSRASGVPSRFSGSGSGTDFTLTISSLQPEDFATYYCQQSDESPLTFGGGTKVEIK
7. 366_B08 (antibody, V domains shown, VH/VL only) VH: EVQLLESGGGLVQPGGSLRLSCAASGFTFDSYGMNWVRQAPGKGLEWVSNINYNGGYKGYADSVKGRFTISRDNSKNTLYLQMNSLRAEDTAVYYCARSANWHDTHLDYWGQGTLVTVSS VL: DIQMTQSPSSLSASVGDRVTITCRASQSIVSYLNWYQQKPGKAPKLLIYAATSRHSGVPSRFSGSGSGTDFTLTISSLQPEDFATYYCQQSYDNPLTFGGGTKVEIK

Solution:
3.4
1.39
3.09
2.49
2.35
1.52
2.15
